This collection of values is drawn from ChEMBL document CHEMBL3988442.

Recorded Percent Effect, one value per entry.
test system: Plasmodium falciparum; assay: Calibr Malaria Delayed Death Assay SOP; type: functional, organism-based; design: scale not given: in the data most compounds retested in dose-response had high values; conditions: concentration 4.99e-06 (unit not given; other assays of the set use mol/L)
Screen size: about 38,000 compounds; about 1,200 (3.2%) showed an effect of 50% or more. The median lay at about -58%. This is one part of a sample in which strong results are shown more often than they occur.
MEASURED PARAMETER: Percent Effect (%)

COMPOUND	MEASURED PARAMETER	RECORDED RESULT
CN(C(=O)c1cccnc1)C1CCCN(CCc2ccccc2)C1 (stereo unspecified)	Percent Effect	-66.95
Cc1cnn(CC2CCCN2Cc2nnc(C)o2)c1 (stereo unspecified)	Percent Effect	-118.7
CN(C(=O)CSc1ccccn1)C1CCCN(CCc2ccccc2)C1 (stereo unspecified)	Percent Effect	-11.51
Cc1cc(NCCc2nc(C)cs2)nc(-c2cccnc2)n1	Percent Effect	-152.4
Cc1c(F)cc(C(=O)O)cc1S(=O)(=O)Nc1ccc(F)c(C#N)c1	Percent Effect	-35.67
CNC(=O)CN1CCC(OCc2ccc(Cl)c(Cl)c2)CC1	Percent Effect	0.3675
COc1cc(NC(=O)c2cc(Cl)ccc2F)c(C(=O)N(C)C)cc1OC	Percent Effect	-86.88
CN(C(=O)CCc1ccncc1)C1CCCN(CCc2ccccc2)C1 (stereo unspecified)	Percent Effect	-32.08
CCC(N)C(=O)N1CCC(OCc2ccc(Cl)c(Cl)c2)CC1.Cl (stereo unspecified)	Percent Effect	65.86
Cc1cnc2c(c1NCc1cccs1)c(=O)n(C)c(=O)n2C	Percent Effect	3.342
CN(Cc1nnc(C2CC2)n1C)C1CCN(CCc2ccccc2)C1 (stereo unspecified)	Percent Effect	-85.28
